- measured.on: T1, recombinant C-terminal ApoE fragment G200-HIS (ApoE-G200-H299-10xHIS) (human, UniProt P02649 218-317)
- T1 construct: also called G200-HIS fragment
- assay.summary: direct ELISA, target coated at 1 ug/ml, supernatant in 3-fold dilutions from 1000 ng/ml, OD 450 nm
readout.type: EC50 (read off the curve)

Looking up 23D5, hybridoma monoclonal antibody (unpurified supernatant) (antibody, mouse IgG1, V domains shown) VH: EVQLVESGGGLVKPGGSLKLSCSASGFTFSRYAMSWVRQSPEKRLEWVAEINSGGSYSFYSDTVTGRFTISRDNAKNTLFLEMSSLRSEDTAIYYCARQLSGTDYYGTDYWGQGTSVTVSS VL: DVLMTQTPLSLPVSHGDQASISCRSSQSLLYSNGNTYLEWYLQKPGQSPKLLIYKVSNRFSGVPDRFSGSGSGTDFTLKISRVEAEDLGVYYCFQGSHVPYTFGGGTKLEIK , I see its EC50 (read off the curve) listed as ~10 ng/mL

So, 21C3, hybridoma monoclonal antibody (unpurified supernatant) (antibody, V domains shown, same VH and VL as 4E6; not made as recombinant antibody) VH: EVQLVESGGDLVKPGGSLKLSCAASGFTFSSYAMSWVRQSPEKRLEWVAEISGSGSRDHYTDSVTGRFTVSRDNAKNTLYLEMSSLRSEDTAIYYCARQLTGTDYYGTDYWGQGTSVTVSS VL: DVLMTQIPLSLPVSLGDQASISCRSSQSIVYSNGNTYLEWYLQRPGQSPKLLIYKVSNRFSGVPDRFSGSGSGTDFTLKISRVEAEDLGVYYCFQGSHLPYTFGGGTKLEIK ? Its EC50 (read off the curve) was ~4 ng/mL

Summary for this binder, 17G4, hybridoma monoclonal antibody (unpurified supernatant) (antibody, mouse IgG1, V domains shown) VH: EVQLVESGGGLVKPGGSLKLSCSASGFTFSRYAMSWVRQSPEKRLEWVAEINSGGSYSFYSDTVTGRFTISRDNAKNTLFLEMSSLRSEDTAIYYCARQLTGTDYYGTDYWGQGTSVTVSS VL: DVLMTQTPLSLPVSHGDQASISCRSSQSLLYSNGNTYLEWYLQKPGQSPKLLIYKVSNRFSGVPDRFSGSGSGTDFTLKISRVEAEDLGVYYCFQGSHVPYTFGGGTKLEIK : EC50 (read off the curve) is ~8 ng/mL
